Each entry below lists one item and its recorded log10 MIC value.
System: Escherichia coli
Assay: Antibacterial activity against Escherichia coli IH3080 by Etest method in presence of 1 ug/ml NAB7061
Type: functional
Short version: log10 scale, MIC, µg/mL.

>>> reported_value("CC[C@H]1OC(=O)[C@H](C)[C@@H](O[C@H]2C[C@@](C)(OC)[C@@H](O)[C@H](C)O2)[C@H](C)[C@@H](O[C@@H]2O[C@H](C)C[C@H](N(C)C)[C@H]2O)[C@](C)(OC)C[C@@H](C)C(=O)[C@H](C)[C@@H](O)[C@]1(C)O")
-0.30
>>> reported_value("C/C(=C\\C(=O)OCCCCCCCCC(=O)O)C[C@@H]1OC[C@H](C[C@@H]2O[C@H]2[C@@H](C)[C@H](C)O)[C@@H](O)[C@H]1O")
1.20
>>> reported_value("CO[C@H]1/C=C/O[C@@]2(C)Oc3c(C)c(O)c4c(O)c(c(/C=N/N5CCN(C)CC5)c(O)c4c3C2=O)NC(=O)/C(C)=C\\C=C\\[C@H](C)[C@H](O)[C@@H](C)[C@@H](O)[C@@H](C)[C@H](OC(C)=O)[C@@H]1C")
-0.60
>>> reported_value("CC[C@H]1OC(=O)[C@H](C)[C@@H](O[C@H]2C[C@@](C)(OC)[C@@H](O)[C@H](C)O2)[C@H](C)[C@@H](O[C@@H]2O[C@H](C)C[C@H](N(C)C)[C@H]2O)[C@](C)(O)C[C@@H](C)CN(C)[C@H](C)[C@@H](O)[C@]1(C)O")
-0.12

Moving on to another compound below.
Prompt line: Param item = CC[C@H]1OC(=O)[C@H](C)[C@@H](O[C@H]2C[C@@](C)(OC)[C@@H](O)[C@H](C)O2)[C@H](C)[C@@H](O[C@@H]2O[C@H](C)C[C@H](N(C)C)[C@H]2O)[C@](C)(O)C[C@@H](C)C(=O)[C@H](C)[C@@H](O)[C@]1(C)O ; retrieve measured log10 MIC.
Response line: 0.60
